Can you tell me log10 EC50 for the items I'm about to list?
biological target: T. gondii tachyzoites (type II ME49-FLuc); assay: Luciferase-based tachyzoite growth assay; type: cell-based, Toxoplasma gondii; settings: Table S1, ME49-FLuc tachyzoites; read-out: T. gondii EC50
Please note: log10 values; quantity EC50; unit µM.

For orientation, consider the following solved cases.
# structure-string, log10 EC50
rows = [
    ("COc1ccc(NC(=O)N2CCCCN3[C@H](CO)[C@H](c4ccc(C#Cc5ccccc5C#N)cc4)[C@@H]3C2)cc1", -0.67),
    ("COc1ccc(NC(=O)N2C[C@@H](O)[C@@H](O)CN3[C@H](CN(C)C)[C@H](c4ccc(C#Cc5ccccc5)cc4)[C@@H]3C2)cc1", -1.41),
    ("COc1ccc(NC(=O)N2CCCCCN3[C@H](CO)[C@H](c4ccc(C#Cc5ccccc5)cc4)[C@@H]3C2)cc1", -0.77),
    ("O=C(Nc1cccc(F)c1)N1CCCCN2[C@H](CO)[C@H](c3ccc(C#Cc4cccnc4)cc3)[C@@H]2C1", -0.31),
]

Provide log10 EC50 for all items below, preserving their order.
1. COc1ccc(NC(=O)N2CCCCN3[C@@H](CO)[C@H](c4ccc(C#Cc5ccccn5)cc4)[C@@H]3C2)cc1
2. COc1ccc(NC(=O)N2CCCCN3C[C@H](c4ccc(C#Cc5ccccc5)cc4)[C@@H]3C2)cc1

-0.19
-1.12

Look up log10 EC50 for the entries below, preserving their order.
1. COc1ccc(NC(=O)N2CCCCN3[C@H](CN4CCC4)[C@H](c4ccc(C#Cc5ccccc5)cc4)[C@@H]3C2)cc1
2. COc1ccc(NC(=O)N2CCCCN3[C@H](CN4CCN(C)CC4)[C@H](c4ccc(C#Cc5ccccc5)cc4)[C@@H]3C2)cc1

1: -0.36; 2: -0.37
